# Test system: control Gram-negative E. coli 25922 strain
# experiment-notes: Antibacterial activity, microbroth dilution MIC, E. coli 25922
# Format: cell-based, Escherichia coli
# assay-setup: Escherichia coli; E. coli 25922, microbroth dilution; read-out: MIC, 25922
Entries and their MIC values follow.
observed-property: MIC

INSERT INTO assay_data (input_smiles, measurement) VALUES
  ('CCc1cc(C(=O)O)c(=O)[nH]c1-c1ccc(N2CCC2)cc1', '1 to 3.5 µg/mL'),
  ('CCc1c(-c2ccc(N3CCNCC3)cc2)[nH]c(=O)c(C(=O)O)c1O.O=C(O)C(F)(F)F', '3.5 to 12.5 µg/mL'),
  ('CC(C)c1cc(C(=O)O)c(=O)[nH]c1-c1ccc(N(C)C)cc1', '3.5 to 12.5 µg/mL'),
  ('CCc1cc(C(=O)O)c(=O)[nH]c1-c1ccc(N2C[C@H]3CC[C@@H](N(C)Cc4ccccc4)[C@H]3C2)cc1.Cl', '3.5 to 12.5 µg/mL'),
  ('CCc1c(-c2ccc(N3C[C@H]4CNC[C@H]4C3)cc2)[nH]c(=O)c(C(=O)O)c1O.Cl', '12.5 to 150 µg/mL'),
  ('CCc1cc(C(=O)O)c(=O)[nH]c1-c1ccc(N2C[C@H]3C[C@H](N)[C@H]3C2)cc1.Cl', '3.5 to 12.5 µg/mL'),
  ('CCc1c(-c2c(OC)cc(OC)cc2OC)[nH]c(=O)c(C(=O)O)c1O', '12.5 to 150 µg/mL'),
  ('CCc1cc(C(=O)O)c(=O)[nH]c1-c1ccccc1N1CCCCC1', '12.5 to 150 µg/mL');
